# maps each entry to its CC50 at 72 h
# protocol.summary: in vitro
# test.context: African green monkey, CC50, Vero-E6 cells, crystal violet
The reply should contain only the number, in µM.

Before answering, review these 5 worked examples.
- CN(C)CCCN1c2ccccc2CCc2ccccc21: 270
- CN[C@H]1CC[C@@H](c2ccc(Cl)c(Cl)c2)c2ccccc21: 116
- Fc1ccc([C@@H]2CCNC[C@H]2COc2ccc3c(c2)OCO3)cc1: 264
- CN1CCN2c3ncccc3Cc3ccccc3C2C1 (centres unmarked): 572
- CN(C)CCC[C@@]1(c2ccc(F)cc2)OCc2cc(C#N)ccc21: 352

Report CC50 at 72 h for `CN(C)CCC=C1c2ccccc2CCc2ccccc21` please.
306

Report CC50 at 72 h for `CN1CCN(C(=O)O[C@H]2c3nccnc3C(=O)N2c2ccc(Cl)cn2)CC1` please.
193

Report CC50 at 72 h for CN(C)CCCC1(c2ccc(F)cc2)OCc2cc(C#N)ccc21 (centres unmarked) please.
295

* * *

# System: SARS-CoV-2 (hCoV-19/Egypt/NRC-3/2020, NRC-03-nhCoV)
# protocol.summary: microbe, parasite or virus in culture
# Type: cell-based
# test.context: Severe acute respiratory syndrome coronavirus 2, Vero C1008, 72 h, read-out: IC50 against SARS-CoV-2
Field 'label' (enum: MET / NOT MET). Set to MET when IC50 is strictly under 80 µM; else NOT MET.

• Fc1ccc([C@@H]2CCNC[C@H]2COc2ccc3c(c2)OCO3)cc1 = MET

Would you kindly verify if IC50 of CN1CCN2c3ncccc3Cc3ccccc3C2C1 (stereo not shown) is strictly less than 80 µM?
NOT MET

Would you kindly verify if IC50 of `CN(C)CCC[C@@]1(c2ccc(F)cc2)OCc2cc(C#N)ccc21` is strictly less than 80 µM?
NOT MET

Would you kindly verify if IC50 of `CN(C)CCC=C1c2ccccc2CCc2ccccc21` is strictly less than 80 µM?
MET

Would you kindly verify if IC50 of `CN(C)CCCN1c2ccccc2CCc2ccccc21` is strictly less than 80 µM?
MET

Would you kindly verify if IC50 of CN(C)CCCC1(c2ccc(F)cc2)OCc2cc(C#N)ccc21 (stereo not shown) is strictly less than 80 µM?
NOT MET

* * *

# System: SARS-CoV-2 (hCoV-19/Egypt/NRC-3/2020, NRC-03-nhCoV)
# protocol.summary: microbe, parasite or virus in culture
# Type: cell-based
# test.context: Severe acute respiratory syndrome coronavirus 2, Vero C1008, 72 h, read-out: IC50 SARS-CoV-2
value.type: pIC50
When answering, recall that pIC50 equals minus log10 of the concentration in mol/L, and write that number alone.

- CN1CCN(C(=O)O[C@H]2c3nccnc3C(=O)N2c2ccc(Cl)cn2)CC1: 4.10

Report pIC50 for `CN(C)CCCN1c2ccccc2CCc2ccccc21` please.
4.53
